Reported TGI values for the following compounds.
# Tested on: KM20L2 colon
# assay text: NCI tumour cell line growth inhibition, 48 h

Recorded results for 5 compounds are shown here.
| compound | measurement target | TGI |
| --- | --- | --- |
| CC1=C(/C=C/C(C)=C/C=C/C(C)=C/C(=O)O)C(C)(C)CCC1 | KM20L2 colon | > 100 µM |
| COc1ccc(/C(=C/n2ccnc2)C(O)c2ccc(OC)c(OC)c2)cc1OC (stereo unspecified) | KM20L2 colon | > 100 µM |
| CCOC(=O)C(CC/C=C\c1ccccc1)N1CCC[C@H]1C(=O)OC (stereo partly specified) | KM20L2 colon | > 100 µM |
| COC(=O)C(C(=O)C(=O)Nc1cccc([N+](=O)[O-])c1)c1nc2ccc([N+](=O)[O-])cc2[nH]c1=O (stereo unspecified) | KM20L2 colon | > 100 µM |
| COC(=O)C(Br)C1CCc2ccccc21 (stereo unspecified) | KM20L2 colon | > 100 µM |

Asked: Kindly indicate its recorded TGI. Item: CCOC(=O)c1cnc2c(ccc3ncccc32)c1NCCCN(CC)CC
Given back: > 100 µM

----------
# Test system: NCI-H522 lung
# assay text: NCI tumour cell line growth inhibition, 48 h
measured property: TGI

| compound | TGI |
| --- | --- |
| CCN(CC)c1ccc(/C=C/C(=O)c2cc(C(C)(C)C)c(O)c(C(C)(C)C)c2)cc1 | 10.2 µM |
| O=c1cc(N=Nc2ccc(Cl)c(Cl)c2)[nH]c(=O)[nH]1 | 2.81 µM |
| CC(NC(=O)c1ccc(NP(=O)(OCc2ccc([N+](=O)[O-])o2)N(C)CCCCCl)cc1)c1ccc(OCC2CCCCC2)c(C(N)=O)c1 (stereo unspecified) | 34.2 µM |

Asked: Give TGI for the following compound: CN(Cc1cc(Br)cc(Br)c1O)Cc1c(O)ccc2ccccc12
Given back: 74.5 µM

Asked: Answer with the recorded TGI of N=CN=CC(=S)O[C@@H]1C(=O)N2CCC[C@@]23CCCC[C@@H]13 only.
Given back: > 12.5 µM

Asked: Give TGI for the following compound: COc1cc2c(cc1O)C1(Cc3ccc4c(c3C1=O)OCO4)N(C)CC2 (stereo unspecified)
Given back: > 100 µM

Asked: Specify measured TGI for COc1cc2c(cc1OC)CC1c3cc(OC)c(OC)cc3CCN1CC2 (stereo unspecified) .
Given back: > 100 µM

Asked: Determine its reported TGI: CSC1=NNC(SC)=NN1
Given back: 0.555 µM

----------
# Test system: MALME-3M melanoma
# assay text: NCI tumour cell line growth inhibition, 48 h
measured property: TGI (µM)
Respond numerically; units are µM and should not be typed.

| molecule | units | TGI |
| --- | --- | --- |
| Cc1cn2c(/C=N/N=C(N)N)c(-c3ccccn3)nc2s1 | µM | 44.4 |
| C=C1C(=O)O[C@H]2[C@H]1CC/C(COC(=O)C(C)c1ccc(CC(C)C)cc1)=C\CC[C@@]1(C)O[C@@H]21 (stereo not given in full) | µM | 2.99 |
| CCn1c(-c2nonc2N)nc2c(C#CC(C)(C)O)ncc(OC[C@H]3CCCNC3)c21 | µM | 30.1 |
| N#CC1(C#N)C2C=CC(c3coc4cccc2c34)C1(C#N)C#N (stereo not given) | µM | 18.8 |
| CCOc1ccccc1-c1nc2c(s1)C(=O)c1ccccc1C2=O | µM | 19.8 |
| CCCCNC(=O)C1C2CCC(O2)C1C(=O)O (stereo not given) | µM | 43.7 |

Asked: Check MALME-3M melanoma data and give TGI for COc1cc(/C=C\c2nnc(/C=C\c3ccc(O)c(OC)c3)s2)ccc1O .
Given back: 24

Asked: Recall the reported TGI of CN(Cc1cc(Br)cc(Br)c1O)Cc1c(O)ccc2ccccc12 on MALME-3M melanoma and write it down.
Given back: 42.9

Asked: State measured TGI of the molecule CCOC(=O)c1cc(Br)c(-c2cc(C)no2)[nH]1 with MALME-3M melanoma.
Given back: 61.3

Asked: Give TGI for this entry on MALME-3M melanoma: C=C(CO)[C@@H]1CC[C@]2(COC3CCCCO3)CC[C@]3(C)[C@H](CC[C@@H]4[C@@]5(C)C=C(C=O)C(=O)C(C)(C)[C@@H]5CC[C@]43C)[C@@H]12 (stereo not given in full)
Given back: 0.544
